target: hSERT (Homo sapiens (Human)); test: SERT radioligand binding assay ([125I]RTI-55, HEK-293 membranes); conditions: recombinant HEK-293 membranes, [125I]RTI-55; read-out: Binding Affinity (IC50, nM) SERT
log10(IC50) reference
Hello, just confirming the data are log10 of IC50 with units of nM.

Sample answers from the record:
{"columns": ["molecule", "result"],
 "data": [
  ["Fc1cc(C23CCN(CC2)Cc2cc(Oc4ccc(C(F)(F)F)nn4)ccc23)ccc1Cl [Example 48]", 0.86],
  ["CS(=O)(=O)c1ccc(-c2ccc3c(c2)CN2CCC3(c3ccc(Cl)cc3)CC2)cc1 [Example 26]", 0.86],
  ["Clc1ccc(C23CCN(CC2)Cc2cc(OCCCc4cccnc4)ccc23)cc1 [Example 36]", 0.08],
  ["Oc1ccc2c(c1)CN1CCC2(c2ccc(Cl)cc2)C1 (racemic) [Example 2]", 2.10],
  ["Nc1cnc(-c2ccc3c(c2)CN2CCC3(c3ccc(Cl)c(Cl)c3)CC2)cn1 [Example 42]", 0.77]
]}

Given item FC(F)(F)c1ccc(Oc2ccc3c(c2)CN2CCC3(c3ccc(Cl)c(Cl)c3)CC2)nn1 [Example 45] , the value recorded as its log10(IC50) is 0.68

Value of measured log10(IC50) for the entry FC(F)(F)c1ccc(Oc2ccc3c(c2)CN2CCC3(c3cccc(Cl)c3)CC2)nn1 [Example 49] : 1.38

For record CCS(=O)(=O)N1CCN(c2ccc(C34CCN(CC3)Cc3cc(N5CCN(S(=O)(=O)CC)CC5)ccc34)cc2)CC1 [Example 31] the listed log10(IC50) is 3.37

For this molecule ( FC(F)(F)c1ccc(-c2ccc3c(c2)CN2CCC3(c3ccc(Cl)cc3)C2)nn1 (racemic) [Example 5] ), measured log10(IC50) is 1.00

Reported log10(IC50) of FC(F)Oc1ccc(-c2ccc3c(c2)CN2CCC3(c3ccc(Cl)cc3)C2)nn1 (single isomer, unassigned) [6(−)] : 0.77

The molecule identified as Oc1ccc2c(c1)CN1CCC2(c2ccc(Cl)cc2)CC1 [Example 13] registered its log10(IC50) at 1.21

According to the records, this molecule Cc1cc2ncnn2cc1-c1ccc2c(c1)CN1CCC2(c2ccc(Cl)c(Cl)c2)CC1 [Example 43] displays log10(IC50) of 1.28

get_value(item= CCS(=O)(=O)N1CCN(c2ccc3c(c2)CN2CCC3(c3ccc(Cl)cc3)CC2)CC1 [Example 30] , readout=log10(IC50)) returns 1.00

Briefly, log10(IC50) measured for Fc1ccc(C23CCN(CC2)Cc2cc(Oc4ccc(C(F)(F)F)nn4)ccc23)cc1 [Example 52] : 0.95

Looking up Cc1nnc(-c2ccc3c(c2)CN2CCC3(c3ccc(Cl)cc3)CC2)s1 [Example 25] , I see its log10(IC50) listed as 0.81

* * *

target: hDAT (Homo sapiens (Human)); experiment: DAT radioligand binding assay ([125I]RTI-55, HEK-293 membranes)
Sequence (Q01959 whole entry): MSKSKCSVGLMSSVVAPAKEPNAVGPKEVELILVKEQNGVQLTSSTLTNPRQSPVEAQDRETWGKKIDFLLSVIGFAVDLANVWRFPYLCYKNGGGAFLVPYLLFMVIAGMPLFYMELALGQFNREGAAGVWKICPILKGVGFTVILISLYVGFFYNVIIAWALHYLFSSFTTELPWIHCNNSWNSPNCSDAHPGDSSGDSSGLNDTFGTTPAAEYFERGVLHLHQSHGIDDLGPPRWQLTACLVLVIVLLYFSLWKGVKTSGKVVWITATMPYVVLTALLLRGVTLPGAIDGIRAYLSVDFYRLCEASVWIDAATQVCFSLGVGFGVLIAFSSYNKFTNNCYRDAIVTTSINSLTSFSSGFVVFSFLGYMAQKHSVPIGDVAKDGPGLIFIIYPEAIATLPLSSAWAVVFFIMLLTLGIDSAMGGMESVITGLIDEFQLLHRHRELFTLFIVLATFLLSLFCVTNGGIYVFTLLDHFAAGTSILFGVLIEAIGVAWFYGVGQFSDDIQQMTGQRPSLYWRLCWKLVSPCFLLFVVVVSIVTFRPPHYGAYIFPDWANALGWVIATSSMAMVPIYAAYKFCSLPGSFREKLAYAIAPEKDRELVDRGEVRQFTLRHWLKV
measure: pIC50
Keep in mind that pIC50 stands for -log10 of concentration in molar terms.

pIC50 on hDAT (Homo sapiens (Human)) for FC(F)(F)c1ccc(-c2ccc3c(c2)CN2CCC3(c3ccc(Cl)cc3)CC2)nn1 is 6.92

* * *

target: hSERT (Homo sapiens (Human), UniProt P31645); experiment: SERT radioligand binding assay ([125I]RTI-55, HEK-293 membranes); settings: recombinant HEK-293 membranes, [125I]RTI-55; read-out: Binding Affinity (IC50, nM) SERT
Sequence (P31645 whole entry): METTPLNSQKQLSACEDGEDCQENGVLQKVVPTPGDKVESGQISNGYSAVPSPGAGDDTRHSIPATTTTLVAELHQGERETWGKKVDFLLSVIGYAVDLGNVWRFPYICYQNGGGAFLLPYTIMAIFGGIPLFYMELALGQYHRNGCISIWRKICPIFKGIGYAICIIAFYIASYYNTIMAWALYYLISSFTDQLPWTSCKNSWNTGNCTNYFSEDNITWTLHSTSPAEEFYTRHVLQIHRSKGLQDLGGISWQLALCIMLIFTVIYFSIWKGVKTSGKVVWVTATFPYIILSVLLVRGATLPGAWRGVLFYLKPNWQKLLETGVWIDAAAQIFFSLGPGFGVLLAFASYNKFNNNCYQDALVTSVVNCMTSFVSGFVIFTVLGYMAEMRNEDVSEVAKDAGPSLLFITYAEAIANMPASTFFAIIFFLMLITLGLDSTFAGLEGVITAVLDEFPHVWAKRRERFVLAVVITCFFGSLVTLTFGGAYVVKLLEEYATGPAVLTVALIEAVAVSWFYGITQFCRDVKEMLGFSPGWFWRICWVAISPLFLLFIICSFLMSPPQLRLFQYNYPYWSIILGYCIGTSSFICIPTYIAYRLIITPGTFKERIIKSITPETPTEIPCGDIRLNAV
compounds and their reported IC50

{"columns": ["compound", "IC50"],
 "data": [
  ["Clc1ccc(C23CCN(Cc4cc(-c5ccc6ncnn6c5)ccc42)C3)cc1 (single isomer, unassigned) [3(+)]", "9.4 nM"],
  ["Cc1nnc2ccc(-c3ccc4c(c3)CN3CCC4(c4ccc(Cl)cc4)CC3)cn12", "12.1 nM"],
  ["Clc1ccc(C23CCN(CC2)Cc2cc(-c4ccc5ncnn5c4)ccc23)cc1Cl", "8.6 nM"],
  ["FC(F)(F)c1ccc(C23CCN(CC2)Cc2cc(Oc4ccc(C(F)(F)F)nn4)ccc23)cc1", "10.9 nM"],
  ["Oc1ccc(-c2ccc3c(c2)CN2CCC3(c3ccc(Cl)cc3)C2)nn1 (single isomer, unassigned) [7(−)]", "6.4 nM"],
  ["FC(F)(F)c1ccc(Oc2ccc3c(c2)CN2CCC3(c3ccc(Cl)cc3)CC2)nn1", "4.3 nM"],
  ["FC(F)Oc1ccc(-c2ccc3c(c2)CN2CCC3(c3ccc(Cl)cc3)CC2)nn1", "1.1 nM"]
]}

Continue with the next compound.
The recorded IC50 for O=c1[nH]c2ccc(-c3ccc4c(c3)CN3CCC4(c4ccc(Cl)c(Cl)c4)C3)cc2o1 (single isomer, unassigned) [11(+)] is 3.5 nM

Where do these numbers come from? They come from patent US9045468B2.
